- System: NK-92 (IL-2 2.5 ng/mL);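 note: normalised to DMSO-only wells as negative and benzethonium chloride as positive control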
- experiment-notes: percent inhibition of viability; higher = more inhibition
- experimental-setup: 72 h; 2500 nM
readout-label: percent inhibition of viability (%)
One number for each entry, in %.

compound="CC(=O)OC[C@H]1O[C@@H]([S-])[C@H](OC(C)=O)[C@@H](OC(C)=O)[C@@H]1OC(C)=O.CCP(CC)CC.[Au+] [Auranofin] (max concentration tested 2500 nM)" value_unit=% recorded_number=98.4
compound="COc1ccc(Cl)c(Nc2nc3ccccc3nc2NS(=O)(=O)c2cccc(NC(=O)C(C)(C)N)c2)c1 [Pilaralisib] (max concentration tested 2500 nM)" value_unit=% recorded_number=47.3
compound="Cc1cc([C@@H](C)Nc2ccccc2C(=O)O)c2nc(N3CCOCC3)cc(=O)n2c1 [AZD-6482] (max concentration tested 2500 nM)" value_unit=% recorded_number=41.9
compound="COc1ccc2c(OCc3nnc4ccc(-c5ccccc5)nn34)ccnc2c1 [AMG-208] (max concentration tested 2500 nM)" value_unit=% recorded_number=13.1

// lookup percent inhibition of viability for C[C@@H]1CN(CC(=O)Nc2ccc3c(c2)Cc2cccc(-c4cc(=O)cc(N5CCOCC5)o4)c2S3)C[C@H](C)O1 (max concentration tested 25000 nM)
18.6
